# ASSAY SUMMARY: NCI Yeast Anticancer Drug Screen. Data for the bub3 strain (AID 167)
# STUDY CONDITIONS: S. cerevisiae bub3 mutant strain, at 50.0 µM, hits give high values
This is part of a sample that, as a whole, favours compounds with a hit. Of some 79,000 tested, about 15% had one in any assay.
PROPERTY: growth inhibition (%)
Give the quantity in %, number only.

# compound O=C1C=CC2=C3c4cc(O)c(O)cc4CC3(O)COC2=C1O (stereo not drawn) ; its growth inhibition = -5.7

# compound N#CSc1cc(S(N)(=O)=O)ccc1N ; its growth inhibition = -1

# compound COc1ccc(OC)c(/C=C2\CCc3ccccc3C2=O)c1 ; its growth inhibition = 47.7

# compound CN(C)C(C)(C)CC(C)(C)C ; its growth inhibition = 17.3

# compound CCOC(=O)C1=C(Nc2ccc(Br)cc2)C(=O)N(CC)C1 ; its growth inhibition = 42.7

# compound c1cc2cccc3c4cccc5cccc(c(c1)c23)c54 ; its growth inhibition = -4.15

# compound COCCOC(=O)c1ccc(C(C)C)cc1 ; its growth inhibition = 2.75

# compound COC(=O)c1cccc(Br)c1 ; its growth inhibition = 0.15

# compound Nc1nc(N)c(N=Nc2ccc(C(=O)O)cc2)c(N)n1 ; its growth inhibition = 19

# compound CCN(CC)C(=O)/C=C(/C)c1ccccc1 ; its growth inhibition = 4.25

# compound N=c1c(C(=O)OCc2ccccc2)ncc(CCl)n1O ; its growth inhibition = 73.2

# compound O=C1C=C(Nc2ccc([N+](=O)[O-])cc2)c2ccccc2C1=O ; its growth inhibition = -12.9

# compound O=C(N/N=C\c1cc(Br)cc(Br)c1O)N/N=C/c1cc(Br)cc(Br)c1O ; its growth inhibition = 39

###

Assignment: determine reported growth inhibition for the given compounds.
# ASSAY SUMMARY: NCI Yeast Anticancer Drug Screen. Data for the mec2-1 strain (AID 157)
# STUDY CONDITIONS: S. cerevisiae mec2-1 strain, at 50.0 µM, hits give high values
The panel holds about 79,000 compounds, 15% with a hit somewhere; the sample as a whole holds those more often.
Give the quantity in %, number only.

# compound CCOC(=O)c1coc(C(=O)OCC)c1C(=O)OCC ; its growth inhibition = -18.1

# compound COc1nc(N)nc2c1ncn2C1OC(CO)CC1O (stereo unspecified) ; its growth inhibition = -3.2

# compound Cc1cc(=O)n(-c2ccc(F)cc2)[nH]1 ; its growth inhibition = -14.1

# compound CC(=O)N(C)c1ccc([N+](=O)[O-])cc1 ; its growth inhibition = -5.6

# compound Nc1nc2c(c(-c3nc(N)nc4c3CCc3ccccc3-4)n1)CCc1ccccc1-2 ; its growth inhibition = -12.6

# compound COC(=O)Nc1nc2ccc(C(=O)c3cccs3)cc2[nH]1 ; its growth inhibition = 33.4

# compound C#C[C@H]1CCCCCC1O (stereo partly specified) ; its growth inhibition = 2

# compound CC(=O)OCC1=CC2OC(=O)C3=COC(OC4OC(CO)C(O)C(O)C4O)C1C32 (stereo unspecified) ; its growth inhibition = -3.55

# compound COCCOCCCl ; its growth inhibition = -19.3

# compound CC(CN1CCCCC1)NC(=O)c1scnc1-c1ccccc1 (stereo unspecified) ; its growth inhibition = -10

# compound CC(C(=O)O)(C1CCCCC1)C1(O)CCCCC1 (stereo unspecified) ; its growth inhibition = 45.5

# compound C/C(=C\c1cc(Cl)ccc1OCC(=O)O)[N+](=O)[O-] ; its growth inhibition = 56.1

# compound O=C(CC(=O)c1ccccc1O)c1ccccc1 ; its growth inhibition = 43.1

# compound Nc1ccc(C(=O)c2ccc(N)c(Br)c2)cc1Br ; its growth inhibition = -0.85

# compound Cc1ccc(N)cc1[N+](=O)[O-] ; its growth inhibition = 2

# compound Cc1cc(OCCO)cc(C)c1Cl ; its growth inhibition = -65.8

# compound CC1(C)Nc2cccc3c(N=Nc4ccc(N=Nc5ccccc5)c5ccccc45)ccc(c23)N1 ; its growth inhibition = -38.1

# compound CCCC1(c2ccccc2)NC(=O)NC1=O (stereo unspecified) ; its growth inhibition = 0.3

# compound Nc1ccc(N=Nc2ccc(O)cc2)c(N)n1 ; its growth inhibition = -20.1

# compound O/N=C/c1ccc(O)cc1O ; its growth inhibition = -5.45

# compound C=CCCCCCCCCCOC(C)=O ; its growth inhibition = -41.1

# compound CCCCCCCCCCC1CO1 (stereo unspecified) ; its growth inhibition = -4.15

# compound O=C1N(C[P+](c2ccccc2)(c2ccccc2)c2ccccc2)CCCN1C[P+](c1ccccc1)(c1ccccc1)c1ccccc1 ; its growth inhibition = 7.4

# compound CCCCC(O)c1ccccc1 (stereo unspecified) ; its growth inhibition = -4.15

# compound C[N+](C)(C)C(=O)c1ccccc1 ; its growth inhibition = 21.4

# compound CC(=O)c1ccc(C(C)(C)C)cc1 ; its growth inhibition = -5.2

# compound O=C(c1ccccc1)C1CCC1 ; its growth inhibition = -5.25

# compound NC(=O)c1ccc(N=C(N)N=C(N)N)cc1 ; its growth inhibition = -15.6

# compound CC(C)(O)C#CC#CC(C)(C)O ; its growth inhibition = 4.2

# compound O=C(O)CCCCNC(=O)c1ccccc1 ; its growth inhibition = -14.4

# compound c1ncc2[nH]cnc2n1 ; its growth inhibition = -4.1

# compound O=C(O)CCCc1ccccc1 ; its growth inhibition = -6.2

# compound CCCC(=O)Nc1ccc2c(c1)CN1C(=O)c3ccccc3C1=N2 ; its growth inhibition = 1.8

# compound O=C(N/N=C/c1ccccc1O)Nc1nn[nH]n1 ; its growth inhibition = -10.2

# compound O=C(O)CSCSCC(=O)O ; its growth inhibition = -26.4

# compound CC1CCC(C(=O)O)N1 (stereo unspecified) ; its growth inhibition = 6.5

# compound O=C1C=CC2=C3c4cc(O)c(O)cc4CC3(O)COC2=C1O (stereo unspecified) ; its growth inhibition = -45.4

# compound CC1(C)OC(=O)C(c2ccsc2)C(=O)O1 ; its growth inhibition = -9.35

# compound NC(N)=Nc1cc2ccccc2c2ccccc12 ; its growth inhibition = -7.15

# compound CC(=O)c1cc2c(cc1F)C(C)(C)CCC2(C)C ; its growth inhibition = -30.4

# compound CC(=O)c1ccc2c(ccc3ccccc32)c1 ; its growth inhibition = -16.3

# compound O=C1C[C@H](c2ccccc2)[C@H](c2ccccc2)C1 ; its growth inhibition = 4.85

# compound CCOc1ccc(/C=C/C(=O)c2ccccc2)cc1 ; its growth inhibition = -15.9

# compound CCCC(C)OCC(=O)O (stereo unspecified) ; its growth inhibition = -3.4

# compound CC(C)CCCC(=O)O ; its growth inhibition = -7.5

# compound OCC(O)C(O)C(O)C(O)/C=N/O (stereo unspecified) ; its growth inhibition = 0.7

# compound O=C1c2ccccc2C(=O)c2c1ccc(C(=O)O)c2[N+](=O)[O-] ; its growth inhibition = 16.6

# compound O=[N+]([O-])c1ccc(/C=C/C=C/c2ccccc2)c(Cl)c1 ; its growth inhibition = -18.3

# compound O=C(O)c1ccccc1NCc1ccco1 ; its growth inhibition = -40.9

# compound CC(C)(N)COS(=O)(=O)O ; its growth inhibition = -14.1

# compound Clc1ccc(-c2nnc(-c3cccc4ccccc34)o2)cc1 ; its growth inhibition = -56.9

# compound CN(C)c1ccc(S(=O)(=O)O)cc1 ; its growth inhibition = -3.65

# compound COC(=O)/C=C1\Sc2cc(F)ccc2NC1=O ; its growth inhibition = 2.45

# compound CCOc1ccc(/C=N/N=C(N)N)cc1OCC ; its growth inhibition = -18

# compound O=c1cc(-c2ccccc2)oc2c1ccc1ccccc12 ; its growth inhibition = 34.1

# compound CC(C)C1CCCCC1O (stereo unspecified) ; its growth inhibition = -9.1

Ref: PubChem BioAssay (NCI)
